Assay: Anticancer human tumor 997537-175-T-J1-PDC patient-derived colon adenocarcinoma cell line growth inhibition [POLQ]
Details: 997537-175-T-J1-PDC complex spheroid viability, combination with POLQ inhibitors; second compound 0.316 µM; first compound 1 µM; stronger effect = lower value
Catalogue of viability, T/C values

Reference set (2 entries):
Request: Give its viability, T/C value. Item: CCc1c2c(nc3ccc(O)cc13)-c1cc3c(c(=O)n1C2)COC(=O)[C@]3(O)CC + Nc1ccc(C#CCN(C(=O)Cc2ncc(C(F)(F)F)cc2C(F)(F)F)c2ccc(F)cc2)nn1
Response: 10.8%

Request: Give its viability, T/C value. Item: CCc1cc2c(N3CCc4c(cc(Cn5ccnc5)cc4-c4cn(C)nc4C(F)(F)F)C3=O)cc(C)nc2c(OC)n1 + Nc1ccc(C#CCN(C(=O)Cc2ncc(C(F)(F)F)cc2C(F)(F)F)c2ccc(F)cc2)nn1
Response: 96.5%

Now for the compound whose viability, T/C we want.
Request: Give its viability, T/C value. Item: CNCc1ccc(-c2[nH]c3cc(F)cc4c3c2CCNC4=O)cc1 + COC1C(OC(N)=O)C(O)C(Oc2ccc3c(O)c(NC(=O)c4ccc(O)c(CC=C(C)C)c4)c(=O)oc3c2C)OC1(C)C
Response: 87%

###

Experiment: Anticancer human tumor 997537-175-T-J1-PDC cell line growth inhibition [POLQ]
Conditions: 997537-175-T-J1-PDC complex spheroid viability, combination with POLQ inhibitors; second compound 1 µM; first compound 0.316 µM; stronger effect = lower value
endpoint label: viability, T/C

Request: Give its viability, T/C value. Item: C#Cc1c(F)ccc2cc(O)cc(-c3ncc4c(N5CC6CCC(C5)N6)nc(OCC56CCCN5CC(F)C6)nc4c3F)c12 (stereo not drawn) + Cc1cccc(N(C)C(=O)C2C(O)CCN2c2nc(C)cc(C(F)(F)F)c2C#N)c1
Response: 111%

Request: Give its viability, T/C value. Item: CC1COCCN1c1cc(-c2ccnn2C)c2ccnc(-c3ccn[nH]3)c2n1 (stereo not drawn) + Nc1ccc(C#CCN(C(=O)Cc2ncc(C(F)(F)F)cc2C(F)(F)F)c2ccc(F)cc2)nn1
Response: 39.4%

Request: Give its viability, T/C value. Item: COc1cc2cc(C(=O)CCC(=O)O)sc2cc1OC + COC1C(OC(N)=O)C(O)C(Oc2ccc3c(O)c(NC(=O)c4ccc(O)c(CC=C(C)C)c4)c(=O)oc3c2C)OC1(C)C
Response: 104%

###

Test: Anticancer human tumor 997537-175-T-J1-PDC cell line growth inhibition [POLQ];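 note: luminescence signal used as a surrogate for viable cells; spheroids exposed to drugs for seven days before readout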
Conditions: 997537-175-T-J1-PDC complex spheroid viability, combination with POLQ inhibitors; curve of first compound; second compound 3.16 µM
Catalogue of pIC50 values
# reply with the number alone; pIC50 is -log10 of concentration in mol/L

Reference set (2 entries):
Request: Give its pIC50 value. Item: CC1COCCN1c1cc(-c2ccnn2C)c2ccnc(-c3ccn[nH]3)c2n1 (centres undefined) + Cc1cccc(N(C)C(=O)C2C(O)CCN2c2nc(C)cc(C(F)(F)F)c2C#N)c1
Response: 6.12

Request: Give its pIC50 value. Item: CCCS(=O)(=O)Nc1ccc(F)c(C(=O)c2c[nH]c3ncc(-c4ccc(Cl)cc4)cc23)c1F + COC1C(OC(N)=O)C(O)C(Oc2ccc3c(O)c(NC(=O)c4ccc(O)c(CC=C(C)C)c4)c(=O)oc3c2C)OC1(C)C
Response: 5.21

Now for the molecule whose pIC50 we want.
Request: Give its pIC50 value. Item: CCc1c2c(nc3ccc(O)cc13)-c1cc3c(c(=O)n1C2)COC(=O)[C@]3(O)CC + Cc1cccc(N(C)C(=O)C2C(O)CCN2c2nc(C)cc(C(F)(F)F)c2C#N)c1
Response: 7.76

###

Test: Anticancer human tumor 997537-175-T-J1-PDC cell line growth inhibition [POLQ];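 note: luminescence signal used as a surrogate for viable cells; spheroids exposed to drugs for seven days before readout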
Details: 997537-175-T-J1-PDC complex spheroid viability, combination with POLQ inhibitors; second compound 3.16 µM; first compound 10 µM; stronger effect = lower value
endpoint label: viability, T/C (%)
Give just the number in %; leave the unit off.

Reference set (4 entries):
Request: Give its viability, T/C value. Item: CC1COCCN1c1cc(C2(O)CC3CCC(C2)O3)c2cnn(-c3ccn[nH]3)c2n1 (stereo not given) + COC1C(OC(N)=O)C(O)C(Oc2ccc3c(O)c(NC(=O)c4ccc(O)c(CC=C(C)C)c4)c(=O)oc3c2C)OC1(C)C
Response: 50.8

Request: Give its viability, T/C value. Item: CC(C)n1c(=O)n(C)c2cnc3cc(F)c(-c4ccc(OCCCN5CCCCC5)nc4)cc3c21 + Nc1ccc(C#CCN(C(=O)Cc2ncc(C(F)(F)F)cc2C(F)(F)F)c2ccc(F)cc2)nn1
Response: 98.7

Request: Give its viability, T/C value. Item: CCc1cc2c(N3CCc4c(cc(Cn5ccnc5)cc4-c4cn(C)nc4C(F)(F)F)C3=O)cc(C)nc2c(OC)n1 + Nc1ccc(C#CCN(C(=O)Cc2ncc(C(F)(F)F)cc2C(F)(F)F)c2ccc(F)cc2)nn1
Response: 73.7

Request: Give its viability, T/C value. Item: CNCc1ccc(-c2[nH]c3cc(F)cc4c3c2CCNC4=O)cc1 + Nc1ccc(C#CCN(C(=O)Cc2ncc(C(F)(F)F)cc2C(F)(F)F)c2ccc(F)cc2)nn1
Response: 111

More entries:
Request: Give its viability, T/C value. Item: COc1ccc([C@@H](O)c2cc(-c3ncnc4cc(N5CCOCC5)ccc34)c(F)cc2Cl)nn1 + COC1C(OC(N)=O)C(O)C(Oc2ccc3c(O)c(NC(=O)c4ccc(O)c(CC=C(C)C)c4)c(=O)oc3c2C)OC1(C)C
Response: 83.8

###

Test: Anticancer human tumor 997537-175-T-J1-PDC cell line growth inhibition [POLQ];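 note: luminescence signal used as a surrogate for viable cells; spheroids exposed to drugs for seven days before readout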
Settings: 997537-175-T-J1-PDC complex spheroid viability, combination with POLQ inhibitors; second compound 1 µM; first compound 0.0316 µM; stronger effect = lower value
endpoint label: viability, T/C (%)
Give just the number in %; leave the unit off.

Request: Give its viability, T/C value. Item: O=C(c1cc(Cc2n[nH]c(=O)c3ccccc23)ccc1F)N1CCN(C(=O)C2CC2)CC1 + Nc1ccc(C#CCN(C(=O)Cc2ncc(C(F)(F)F)cc2C(F)(F)F)c2ccc(F)cc2)nn1
Response: 104

Request: Give its viability, T/C value. Item: COc1cc2cc(C(=O)CCC(=O)O)sc2cc1OC + COC1C(OC(N)=O)C(O)C(Oc2ccc3c(O)c(NC(=O)c4ccc(O)c(CC=C(C)C)c4)c(=O)oc3c2C)OC1(C)C
Response: 100

More entries:
Request: Give its viability, T/C value. Item: CC1COCCN1c1cc(-c2ccnn2C)c2ccnc(-c3ccn[nH]3)c2n1 (stereo not given) + COC1C(OC(N)=O)C(O)C(Oc2ccc3c(O)c(NC(=O)c4ccc(O)c(CC=C(C)C)c4)c(=O)oc3c2C)OC1(C)C
Response: 96.5

Request: Give its viability, T/C value. Item: C=CC(=O)N1CCN(c2nc(=O)n(-c3c(C)ccnc3C(C)C)c3nc(-c4c(O)cccc4F)c(F)cc23)C(C)C1 (stereo not given) + Cc1cccc(N(C)C(=O)C2C(O)CCN2c2nc(C)cc(C(F)(F)F)c2C#N)c1
Response: 105

Request: Give its viability, T/C value. Item: CC[C@@]1(O)C(=O)OCc2c1cc1n(c2=O)Cc2cc3c(CN(C)C)c(O)ccc3nc2-1 + COC1C(OC(N)=O)C(O)C(Oc2ccc3c(O)c(NC(=O)c4ccc(O)c(CC=C(C)C)c4)c(=O)oc3c2C)OC1(C)C
Response: 86

Request: Give its viability, T/C value. Item: COc1cccc2c1C(=O)c1c(O)c3c(c(O)c1C2=O)CC(O)(C(=O)CO)CC3OC1CC(N)C(O)C(C)O1 (stereo not given) + Cc1cccc(N(C)C(=O)C2C(O)CCN2c2nc(C)cc(C(F)(F)F)c2C#N)c1
Response: 92.8

Request: Give its viability, T/C value. Item: CC1COCCN1c1cc(-c2ccnn2C)c2ccnc(-c3ccn[nH]3)c2n1 (stereo not given) + Cc1cccc(N(C)C(=O)C2C(O)CCN2c2nc(C)cc(C(F)(F)F)c2C#N)c1
Response: 96.6

###

Assay: Anticancer human tumor 997537-175-T-J1-PDC cell line growth inhibition [POLQ]; active = viability on the fitted dose curve at most 10% of control; inactive = the rest;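 note: luminescence signal used as a surrogate for viable cells; spheroids exposed to drugs for seven days before readout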
Conditions: 997537-175-T-J1-PDC complex spheroid viability, combination with POLQ inhibitors; second compound 3.16 µM; first compound 10 µM
Description: Multicellular complex tumor spheroid response to Polymerase (POL) inhibitors (novobiocin, ART-558, RP6685) in combination with a variety of drugs and investigational agents in selected tumor cell lines The POL inhibitors (novobiocin, ART-558, and RP6685) were evaluated both individually and in combination with standard of care and investigational anticancer small molecules within a complex spheroid model of solid tumors. . […]
Form entry, call: pick from 1.0 (active), 0.0 (inactive)

Reference set, count: 2
Request: Record lookup: outcome of this test for COc1cccc2c1C(=O)c1c(O)c3c(c(O)c1C2=O)CC(O)(C(=O)CO)CC3OC1CC(N)C(O)C(C)O1 (stereo not drawn) + Nc1ccc(C#CCN(C(=O)Cc2ncc(C(F)(F)F)cc2C(F)(F)F)c2ccc(F)cc2)nn1 ?
Response: 1.0

Request: Record lookup: outcome of this test for CC1COCCN1c1cc(-c2ccnn2C)c2ccnc(-c3ccn[nH]3)c2n1 (stereo not drawn) + Cc1cccc(N(C)C(=O)C2C(O)CCN2c2nc(C)cc(C(F)(F)F)c2C#N)c1 ?
Response: 0.0

# next compound below
Request: Record lookup: outcome of this test for C=CC(=O)N1CCN(c2nc(=O)n(-c3c(C)ccnc3C(C)C)c3nc(-c4c(O)cccc4F)c(F)cc23)C(C)C1 (stereo not drawn) + Nc1ccc(C#CCN(C(=O)Cc2ncc(C(F)(F)F)cc2C(F)(F)F)c2ccc(F)cc2)nn1 ?
Response: 0.0
